# TEST_NAME: qHTS Screen of the MIPE 4.0 Collection Against Ewings Sarcoma (EW8) (AID 1259255); also: nearly all actives have a fitted effect of over 35% in size
# PROTOCOL_CONDITIONS: EW8 Ewing sarcoma viability, CellTiter-Glo, 48 h; series mostly up to 45.8 µM
Records with an inconclusive call do not appear. Activity calls are given as the source filed them. Calls follow the shape of the dose curve; as a rule, active = well fitted inhibition curve with a large enough effect; inconclusive = small, poorly fitted or top-dose-only effect; inactive = no such curve, though single readings can be large or run the other way.
API: response.call in active, inactive

COMPOUND	ASSIGNED_LABEL
CC(C)C[C@H](NC(=O)[C@H](CCc1ccccc1)NC(=O)CN1CCOCC1)C(=O)N[C@@H](Cc1ccccc1)C(=O)N[C@@H](CC(C)C)C(=O)[C@@]1(C)CO1	active

Q. What is the recorded call for this compound in the test? COc1cc(NS(=O)(=O)c2ccc(N)cc2)nc(OC)n1
A. inactive

Q. What is the recorded call for this compound in the test? CCCCOc1ccc(CC(=O)NO)cc1
A. active

Q. What is the recorded call for this compound in the test? COc1ccc(C(=O)CC(=O)c2ccc(C(C)(C)C)cc2)cc1
A. active

Q. What is the recorded call for this compound in the test? CN1CCN(c2c(F)cc3c(=O)c(C(=O)O)cn(CCF)c3c2F)CC1
A. inactive

Q. What is the recorded call for this compound in the test? CC(C)C1CCC(C(=O)N[C@H](Cc2ccccc2)C(=O)O)CC1 (stereo partly specified)
A. inactive

---

# TEST_NAME: qHTS of pediatric cancer cell lines to identify multiple opportunities for drug repurposing: Primary screen for control Hh wild type fibroblast cells (AID 1347106);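 also: a drop in luminescence marks cytotoxicity and a rise apparent proliferation; nearly all actives have a fitted effect of over 55% in size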
# PROTOCOL_CONDITIONS: Hh wild-type fibroblast viability, CellTiter-Glo luminescence, 48 h; series mostly up to 46 µM
Inconclusive results are not listed. Active and inactive are the calls of the source. Calls follow the shape of the dose curve; as a rule, active = well fitted cell-killing curve with a large enough effect; inconclusive = small, poorly fitted or top-dose-only effect; inactive = flat fitted curve, though single readings scatter.
MEASUREMENT_KIND: outcome

Some solved cases for reference:
COMPOUND	outcome
CNS(=O)(=O)Cc1ccc2[nH]cc(CCN(C)C)c2c1	inactive
CC[C@H](NC(C)C)[C@H](O)c1ccc(O)c2[nH]c(=O)ccc12	inactive
CNC1CCCN(c2c(F)cc3c(=O)c(C(=O)O)cn(C4CC4)c3c2OC)C1 (stereo not given)	inactive
Cc1nnc(NS(=O)(=O)c2ccc(N)cc2)s1	inactive

--- query ---
Q. Specify measured outcome for Cc1noc(NS(=O)(=O)c2ccc(N)cc2)c1C .
A. inactive

---

# TEST_NAME: Drug repurposing screens with cells derived from glioblastoma tumor samples (AID 1345199); also: nearly all actives have a fitted effect of over 40% in size
# PROTOCOL_CONDITIONS: GBM patient neurospheres viability, ATP luminescence, 48 h; at 21.2 µM (top of the series); tumour line D
Results filed as inconclusive are left out.
Threshold -10%: activity, negative = cell killing strictly smaller gives yes, otherwise no.

COMPOUND	ASSIGNED_LABEL
O=C(O)c1cn(C2CC2)c2cc(N3CCNCC3)c(F)cc2c1=O	no
CCn1cc(C(=O)O)c(=O)c2cc(F)c(N3CCNCC3)nc21	yes
Nc1[nH]c(=O)ncc1F	no
COc1ccccc1OCC(O)COC(N)=O (stereo not given)	yes

Q. Consider C[C@@H]1C[C@H]2[C@@H]3CCC4=CC(=O)C=C[C@]4(C)[C@@]3(Cl)[C@@H](O)C[C@]2(C)[C@@]1(OC(=O)c1ccco1)C(=O)CCl . Does its activity, negative = cell killing lie strictly below -10%?
A. no

---

# TEST_NAME: Cell Viability - Jurkat (AID 426);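 also: potency is read from the fitted curve at half-maximal effect; cells exposed to compound for 40 hours at 37 °C before ATP read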
# PROTOCOL_CONDITIONS: qHTS
Results filed as inconclusive are left out. The source made the active and inactive calls.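 Rule for the calls: active = dose-dependent loss of cell ATP signal giving a full or clear fitted curve, ranked by lower potency value; inconclusive = weak partial curve or response only at the top dose; inactive = no loss of viability signal.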
Here, each record is paired with measured Potency data.

SMILES_STRUCTURE	Potency
NNC(=O)c1ccncc1	> 92 µM (inactive)
CCc1cc(C(N)=S)ccn1	> 92 µM (inactive)

--- query ---
Q. Specify measured Potency for Cc1ccnc2c1NC(=O)c1cccnc1N2C1CC1 .
A. > 92 µM (inactive)

---

# TEST_NAME: qHTS of pediatric cancer cell lines to identify multiple opportunities for drug repurposing: Confirmatory screen for OHS-50 cells (AID 1347128);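 also: compound exposure lasted 48 h at 37 degrees C; nearly all actives have a fitted effect of over 55% in size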
# PROTOCOL_CONDITIONS: OHS-50 osteosarcoma cells viability; series mostly up to 45.9 µM
Results filed as inconclusive are left out. Activity calls are given as the source filed them. Calls come from the whole dose curve; as a rule, active = well fitted cell-killing curve with a large enough effect; inconclusive = small, poorly fitted or top-dose-only effect, or effect the other way; inactive = no such curve, though single readings can be large or run the other way.
API: response.call in active, inactive

Consider the worked cases shown below.
SMILES_STRUCTURE	ASSIGNED_LABEL
CCc1c2c(nc3ccc(OC(=O)N4CCC(N5CCCCC5)CC4)cc13)-c1cc3c(c(=O)n1C2)COC(=O)[C@]3(O)CC	active
Cc1cccc(N(C)C(=S)Oc2ccc3ccccc3c2)c1	inactive
COc1cc2nc(N3CCCN(C)CC3)nc(NC3CCN(Cc4ccccc4)CC3)c2cc1OC	active
COc1ccc(C(=O)CC(=O)c2ccc(C(C)(C)C)cc2)cc1	inactive

Q. What is the recorded call for this molecule in the test? CC(C)(C#N)c1cc(Cn2cncn2)cc(C(C)(C)C#N)c1
A. inactive

---

# TEST_NAME: qHTS assay for measurement of the activity of small molecule inhibitors on Zika virus induced Caspase-3 activity in human iPSC derived neural progenitor cells (hNPCs) (AID 1224857); also: nearly all actives have a fitted effect of over 65% in size
# PROTOCOL_CONDITIONS: hNPCs ZIKV-induced caspase-3/7, Caspase-Glo luminescence, 6 h; series mostly up to 45.7 µM
Results filed as inconclusive are left out. Calls of active or inactive are those of the source. Calls follow the shape of the dose curve; as a rule, active = well fitted inhibition curve with a large enough effect; inconclusive = small, poorly fitted or top-dose-only effect; inactive = no such curve, though single readings can be large or run the other way.
MEASUREMENT_KIND: outcome

Some solved cases for reference:
COMPOUND	outcome
CS(=O)(=O)c1ccc([C@@H](O)[C@@H](CO)NC(=O)C(Cl)Cl)cc1	inactive
COc1ccc2c(c1)c(CC(=O)OCC(=O)O)c(C)n2C(=O)c1ccc(Cl)cc1	inactive
Cc1nnc(C(=O)NC(C)(C)c2nc(C(=O)NCc3ccc(F)cc3)c(O)c(=O)n2C)o1	inactive
CN(Cc1cc(Br)cc(Br)c1N)C1CCCCC1	inactive
Cc1ccnc2c1NC(=O)c1cccnc1N2C1CC1	inactive
COc1cc(NCc2ccc3nc(N)nc(N)c3c2C)cc(OC)c1OC	inactive
NS(=O)(=O)c1cc2c(cc1Cl)NC(C(Cl)Cl)NS2(=O)=O (centres undefined)	inactive
Cc1c(-c2ccc(O)cc2)n(Cc2ccc(OCCN3CCCCCC3)cc2)c2ccc(O)cc12	inactive

Q. Specify measured outcome for C[C@@H](NCCCc1cccc(C(F)(F)F)c1)c1cccc2ccccc12 .
A. inactive

Q. Specify measured outcome for COCCCOc1cc(C[C@@H](C[C@H](N)[C@@H](O)C[C@H](C(=O)NCC(C)(C)C(N)=O)C(C)C)C(C)C)ccc1OC .
A. inactive

Q. Specify measured outcome for C#CCN[C@@H]1CCc2ccccc21 .
A. inactive

Q. Specify measured outcome for Clc1ccccc1CN1CCc2sccc2C1 .
A. inactive

Q. Specify measured outcome for CC(C)NCC(O)c1ccc(NS(C)(=O)=O)cc1 (centres undefined) .
A. inactive

Q. Specify measured outcome for COc1cccc(N(C)C(=S)Oc2ccc3c(c2)CCCC3)n1 .
A. inactive

Q. Specify measured outcome for O=S(=O)(O)CCS .
A. inactive

Q. Specify measured outcome for CCOC(=O)c1ccc(OC(=O)CCCCCN=C(N)N)cc1 .
A. inactive

Q. Specify measured outcome for COc1cnc(NS(=O)(=O)c2ccc(N)cc2)nc1 .
A. inactive

Q. Specify measured outcome for CCc1cc(C(N)=S)ccn1 .
A. inactive

Q. Specify measured outcome for Cc1nnc(NS(=O)(=O)c2ccc(N)cc2)s1 .
A. inactive

Q. Specify measured outcome for CCn1cc(C(=O)O)c(=O)c2cc(F)c(N3CCNCC3)nc21 .
A. inactive

Q. Specify measured outcome for CCCOc1ccc(C(=O)OCCN(CC)CC)cc1N .
A. inactive

Q. Specify measured outcome for O=c1oc2c(O)c(O)cc3c(=O)oc4c(O)c(O)cc1c4c23 .
A. inactive

Q. Specify measured outcome for CNC(=O)c1cc(Oc2ccc(NC(=O)Nc3ccc(Cl)c(C(F)(F)F)c3)cc2)ccn1 .
A. inactive

Q. Specify measured outcome for CN1CCCC(n2nc(Cc3ccc(Cl)cc3)c3ccccc3c2=O)CC1 (centres undefined) .
A. inactive

---

# TEST_NAME: Quantitative High-Throughput drug screen in 47 multiple myeloma cell lines against the NCATS MIPE library collection: U266_ATCC cell viability assay (AID 1919864); also: nearly all actives have a fitted effect of over 35% in size; also: potency is read from the fitted curve at half-maximal effect
# PROTOCOL_CONDITIONS: U266 myeloma viability, CellTiter-Glo ATP luminescence, 48 h; series mostly up to 45.8 µM
Records with an inconclusive call do not appear. Calls of active or inactive are those of the source. Calls follow the shape of the dose curve; as a rule, active = well fitted cell-killing curve with a large enough effect; inconclusive = small, poorly fitted or top-dose-only effect, or effect the other way; inactive = no such curve, though single readings can be large or run the other way.
MEASUREMENT_KIND: Potency

Some solved cases for reference:
MOLECULE	Potency
CCCCS(=N)(=O)CCC(N)C(=O)O (stereo unspecified)	inactive
C1CCC(C(CC2CCCCN2)C2CCCCC2)CC1 (stereo unspecified)	11.8 µM (active)
CS(=O)(=O)c1ccc([C@@H](O)[C@@H](CO)NC(=O)C(Cl)Cl)cc1	inactive
COc1cc2c(Nc3ccc(Br)cc3F)ncnc2cc1OCC1CCN(C)CC1	20.9 µM (active)
CCN[C@H]1C[C@H](C)S(=O)(=O)c2sc(S(N)(=O)=O)cc21	inactive

Q. Specify measured Potency for CCOC(=O)c1ccc(OC(=O)CCCCCN=C(N)N)cc1 .
A. inactive
